The reported measurements were obtained from ChEMBL document CHEMBL3124903.

System: Staphylococcus aureus
Assay: Antibacterial activity against Staphylococcus aureus assessed as growth inhibition by microdilution broth susceptibility assay
Assay type: functional
# reported MIC; entries follow
Numbers only; they are read as µg/mL.

Cc1c(-c2nn3c(-c4ccc(O)cc4)nnc3s2)[se]c2ncnc(Nc3ccc(Cl)cc3)c12 6.25
Cc1c(-c2nn3c(-c4ccccc4)nnc3s2)[se]c2ncnc(Nc3ccc(F)c(Cl)c3)c12 50
Cc1ccc(-c2nnc3sc(-c4[se]c5ncnc(Nc6ccc(F)c(Cl)c6)c5c4C)nn23)cc1 6.25

Now take the following molecule into account.
MIC measured on `COc1ccc(-c2nnc3sc(-c4[se]c5ncnc(Nc6ccc(F)c(Cl)c6)c5c4C)nn23)cc1` = 6.25
